Target Entity: Sodium-dependent serotonin transporter (Homo sapiens, UniProt P31645)
Sequence (P31645 whole entry): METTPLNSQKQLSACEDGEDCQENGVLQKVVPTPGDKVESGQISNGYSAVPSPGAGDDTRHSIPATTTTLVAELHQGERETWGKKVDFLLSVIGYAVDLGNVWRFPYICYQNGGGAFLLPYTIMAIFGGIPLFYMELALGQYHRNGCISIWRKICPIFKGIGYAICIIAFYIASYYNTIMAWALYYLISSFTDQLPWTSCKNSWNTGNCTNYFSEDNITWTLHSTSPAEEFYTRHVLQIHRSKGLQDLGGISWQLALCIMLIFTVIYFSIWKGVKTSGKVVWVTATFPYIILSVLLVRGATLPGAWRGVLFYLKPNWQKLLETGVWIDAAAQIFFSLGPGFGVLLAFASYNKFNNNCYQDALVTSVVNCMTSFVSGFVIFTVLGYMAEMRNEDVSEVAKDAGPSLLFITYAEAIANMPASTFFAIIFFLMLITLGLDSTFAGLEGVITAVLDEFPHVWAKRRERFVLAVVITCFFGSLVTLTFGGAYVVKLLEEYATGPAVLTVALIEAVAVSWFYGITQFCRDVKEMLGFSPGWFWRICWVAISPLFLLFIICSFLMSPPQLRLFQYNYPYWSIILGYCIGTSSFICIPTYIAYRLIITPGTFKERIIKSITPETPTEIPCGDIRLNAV
pKi: −log10 of the molar value.
Classification field: enter yes (1) for pKi values not below 8, no (0) for values below it.

Compound: c1ccc(N(c2ccc3[nH]ccc3c2)C2CCNCC2)cc1
Assigned Label: no (0)

Compound: N#Cc1ccc(CN(c2ccc3[nH]ccc3c2)C2CCNCC2)cc1
Assigned Label: yes (1)

Compound: CC(c1ccccc1)N(c1ccc2[nH]ccc2c1)C1CCNCC1 (stereo unspecified)
Assigned Label: no (0)

====

Target Entity: hERG (KCNH2) (Homo sapiens)
Sequence (Q12809 whole entry): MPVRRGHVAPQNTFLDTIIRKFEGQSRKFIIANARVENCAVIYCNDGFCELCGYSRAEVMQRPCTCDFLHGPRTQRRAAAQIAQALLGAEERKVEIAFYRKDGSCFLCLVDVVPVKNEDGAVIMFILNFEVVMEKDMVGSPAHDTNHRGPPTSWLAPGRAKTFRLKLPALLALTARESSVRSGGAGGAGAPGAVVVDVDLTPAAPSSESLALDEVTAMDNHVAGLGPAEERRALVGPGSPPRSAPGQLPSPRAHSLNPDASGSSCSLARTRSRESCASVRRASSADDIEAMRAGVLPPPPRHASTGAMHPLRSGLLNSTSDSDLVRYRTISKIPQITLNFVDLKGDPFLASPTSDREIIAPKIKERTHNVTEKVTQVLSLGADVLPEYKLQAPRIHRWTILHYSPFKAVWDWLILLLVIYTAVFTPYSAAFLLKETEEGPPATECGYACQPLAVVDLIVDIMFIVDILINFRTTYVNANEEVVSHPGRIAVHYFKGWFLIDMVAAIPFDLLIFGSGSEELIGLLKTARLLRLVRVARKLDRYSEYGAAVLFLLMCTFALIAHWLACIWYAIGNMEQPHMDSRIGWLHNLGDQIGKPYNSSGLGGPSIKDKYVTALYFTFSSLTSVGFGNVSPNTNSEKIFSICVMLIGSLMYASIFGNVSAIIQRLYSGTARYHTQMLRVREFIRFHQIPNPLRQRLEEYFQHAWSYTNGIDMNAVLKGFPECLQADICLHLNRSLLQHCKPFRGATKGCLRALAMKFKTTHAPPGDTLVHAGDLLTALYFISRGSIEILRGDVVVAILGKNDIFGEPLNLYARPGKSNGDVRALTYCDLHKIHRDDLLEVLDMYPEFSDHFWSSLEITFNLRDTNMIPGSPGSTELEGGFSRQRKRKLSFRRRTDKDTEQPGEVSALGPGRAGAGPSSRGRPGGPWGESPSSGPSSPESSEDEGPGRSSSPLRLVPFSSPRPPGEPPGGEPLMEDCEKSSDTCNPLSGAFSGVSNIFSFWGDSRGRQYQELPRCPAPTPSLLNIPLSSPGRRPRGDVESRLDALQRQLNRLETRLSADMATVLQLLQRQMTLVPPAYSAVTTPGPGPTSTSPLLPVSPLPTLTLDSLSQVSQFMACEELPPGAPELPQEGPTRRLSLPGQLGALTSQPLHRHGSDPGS
Assay Protocol: in vitro
Reported Conditions: CHO cells expressing human ERG
Description: Inhibition of human ERG expressed in CHO cells
Attribute Measured: IC20 (nM)

Compound: c1ccc(CN(c2ccc3[nH]ncc3c2)C2CCNCC2)cc1
Measurement Units: nM
Measurement Qualifier: <
Observed Result: 1000
//
Compound: CNCCC(c1ccccc1)c1ccc2[nH]ccc2c1 (stereo not given)
Measurement Units: nM
Measurement Qualifier: <
Observed Result: 1000
//
Compound: Cn1ccc2cc(N(Cc3ccccc3)C3CCNCC3)ccc21
Measurement Units: nM
Measurement Qualifier: =
Observed Result: 5100
//
Compound: c1ccc(CN(c2ccc3[nH]ccc3c2)C2CCCNC2)cc1 (stereo not given)
Measurement Units: nM
Measurement Qualifier: <
Observed Result: 1000
//
Compound: c1ccc(CN(c2ccc3[nH]ccc3c2)C2CCNC2)cc1 (stereo not given)
Measurement Units: nM
Measurement Qualifier: <
Observed Result: 1000
//
Compound: N#Cc1cccc(CN(c2ccc3[nH]ccc3c2)C2CCNCC2)c1
Measurement Units: nM
Measurement Qualifier: <
Observed Result: 1000
//
Compound: c1ccc(CN(c2ccc3sccc3c2)C2CCNCC2)cc1
Measurement Units: nM
Measurement Qualifier: =
Observed Result: 1000
//
Compound: COc1cccc(CN(c2ccc3[nH]ccc3c2)C2CCNCC2)c1
Measurement Units: nM
Measurement Qualifier: =
Observed Result: 1000
//
Compound: NS(=O)(=O)c1cccc(CN(c2ccc3[nH]ccc3c2)C2CCNCC2)c1
Measurement Units: nM
Measurement Qualifier: >
Observed Result: 10000
//
Compound: c1ccc(CN(c2ccc3[nH]ccc3c2)C2CCNCC2)cc1
Measurement Units: nM
Measurement Qualifier: =
Observed Result: 1000

====

Target Entity: UniProt:P23975
Sequence (P23975 whole entry): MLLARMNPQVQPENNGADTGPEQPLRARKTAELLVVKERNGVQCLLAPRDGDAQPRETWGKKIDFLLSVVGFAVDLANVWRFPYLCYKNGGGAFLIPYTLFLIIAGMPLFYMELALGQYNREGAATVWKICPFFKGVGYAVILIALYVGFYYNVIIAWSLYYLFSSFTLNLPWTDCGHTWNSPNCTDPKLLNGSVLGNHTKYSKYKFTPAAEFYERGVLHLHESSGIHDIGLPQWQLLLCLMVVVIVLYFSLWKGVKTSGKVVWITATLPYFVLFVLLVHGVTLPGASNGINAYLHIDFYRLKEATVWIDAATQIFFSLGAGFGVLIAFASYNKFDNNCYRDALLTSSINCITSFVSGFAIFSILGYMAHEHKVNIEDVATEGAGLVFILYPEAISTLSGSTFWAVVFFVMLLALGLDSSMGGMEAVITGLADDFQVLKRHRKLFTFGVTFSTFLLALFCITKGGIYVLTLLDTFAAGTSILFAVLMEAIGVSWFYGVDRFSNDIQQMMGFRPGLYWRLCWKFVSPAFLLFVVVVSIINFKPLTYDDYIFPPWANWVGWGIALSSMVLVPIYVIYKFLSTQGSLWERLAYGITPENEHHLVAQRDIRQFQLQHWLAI
pKi: −log10 of the molar value.
Classification field: enter satisfied for pKi values not below 7, not satisfied for values below it.

Compound: c1ccc(CN(c2ccc3sccc3c2)C2CCNCC2)cc1
Assigned Label: not satisfied
//
Compound: Fc1ccccc1CN(c1ccc2[nH]ccc2c1)C1CCNCC1
Assigned Label: satisfied
//
Compound: CNCCN(c1ccccc1)c1ccc2[nH]ccc2c1
Assigned Label: not satisfied
//
Compound: c1cc2cc(N(CC3CCOCC3)C3CCNCC3)ccc2[nH]1
Assigned Label: satisfied
//
Compound: N#Cc1ccc(CN(c2ccc3[nH]ccc3c2)C2CCNCC2)cc1
Assigned Label: not satisfied
//
Compound: N#Cc1ccccc1CN(c1ccc2[nH]ccc2c1)C1CCNCC1
Assigned Label: satisfied
//
Compound: Fc1cccc(CN(c2ccc3[nH]ccc3c2)C2CCNCC2)c1
Assigned Label: satisfied
//
Compound: c1ccc(CN(c2ccc3[nH]ncc3c2)C2CCNCC2)cc1
Assigned Label: satisfied
//
Compound: CC(c1ccccc1)N(c1ccc2[nH]ccc2c1)C1CCNCC1 (configuration not stated)
Assigned Label: not satisfied
//
Compound: c1ccc(N(c2ccc3[nH]ccc3c2)C2CCNCC2)cc1
Assigned Label: not satisfied
//
Compound: COc1cccc(CN(c2ccc3[nH]ccc3c2)C2CCNCC2)c1
Assigned Label: satisfied
//
Compound: Cn1ccc2cc(N(Cc3ccccc3)C3CCNCC3)ccc21
Assigned Label: satisfied
//
Compound: c1ccc(CCN(c2ccc3[nH]ccc3c2)C2CCNCC2)cc1
Assigned Label: satisfied
//
Compound: Fc1ccc(CN(c2ccc3[nH]ccc3c2)C2CCNCC2)cc1
Assigned Label: not satisfied
//
Compound: N#Cc1cccc(CN(c2ccc3[nH]ccc3c2)C2CCNCC2)c1
Assigned Label: satisfied
